Taken from ChEMBL document CHEMBL5120864.

Test: physchem
Conditions: buffer

>  <cpdSmiles>
CCN(c1cc(-c2ccccc2)cc(C(=O)NCc2c3c(c(C)[nH]c2=O)CCCC3)c1C)C1CCOCC1

>  <solubility>
185 µg/mL

$$$$

###

Target: Histone-lysine N-methyltransferase EZH1 (Homo sapiens, UniProt Q92800)
Sequence (Q92800 whole entry): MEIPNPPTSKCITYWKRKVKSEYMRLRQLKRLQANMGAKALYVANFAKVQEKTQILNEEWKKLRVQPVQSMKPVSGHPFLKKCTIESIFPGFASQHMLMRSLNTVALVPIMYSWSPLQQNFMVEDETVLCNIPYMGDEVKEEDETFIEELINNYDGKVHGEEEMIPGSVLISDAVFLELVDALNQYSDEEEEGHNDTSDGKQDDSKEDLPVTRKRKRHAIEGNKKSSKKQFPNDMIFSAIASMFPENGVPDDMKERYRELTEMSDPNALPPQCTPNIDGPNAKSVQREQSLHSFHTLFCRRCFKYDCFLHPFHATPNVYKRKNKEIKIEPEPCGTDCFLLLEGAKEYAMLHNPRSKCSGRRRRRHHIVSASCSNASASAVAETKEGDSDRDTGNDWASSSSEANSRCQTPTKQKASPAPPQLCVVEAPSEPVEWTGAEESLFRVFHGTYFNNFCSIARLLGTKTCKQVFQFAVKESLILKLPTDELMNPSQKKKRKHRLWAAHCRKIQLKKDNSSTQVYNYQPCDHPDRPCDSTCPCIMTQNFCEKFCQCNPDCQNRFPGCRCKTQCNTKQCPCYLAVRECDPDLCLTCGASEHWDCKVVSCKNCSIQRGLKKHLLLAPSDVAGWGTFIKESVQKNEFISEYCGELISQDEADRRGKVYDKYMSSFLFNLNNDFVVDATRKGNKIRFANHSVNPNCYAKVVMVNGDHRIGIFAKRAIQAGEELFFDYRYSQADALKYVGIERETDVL

>  <cpdSmiles>
CCN(c1cc(-c2ccc(CN3CCN(C)CC3)cc2)cc(C(=O)NCc2c3c(c(C)[nH]c2=O)CCCC3)c1C)C1CCCCC1

>  <IC50>
136 nM

$$$$

###

Target: Histone-lysine N-methyltransferase EZH1 (Homo sapiens, UniProt Q92800)
pIC50: −log10 of the molar value.

>  <cpdSmiles>
CCN(c1cc(-c2ccc(N3CCN(C)CC3)cc2)cc(C(=O)NCc2c3c(c(C)[nH]c2=O)CCCC3)c1C)C1CCOCC1

>  <pIC50>
7.09

$$$$

###

Target: Histone-lysine N-methyltransferase EZH2 (Homo sapiens, UniProt Q15910)
Sequence (Q15910 whole entry): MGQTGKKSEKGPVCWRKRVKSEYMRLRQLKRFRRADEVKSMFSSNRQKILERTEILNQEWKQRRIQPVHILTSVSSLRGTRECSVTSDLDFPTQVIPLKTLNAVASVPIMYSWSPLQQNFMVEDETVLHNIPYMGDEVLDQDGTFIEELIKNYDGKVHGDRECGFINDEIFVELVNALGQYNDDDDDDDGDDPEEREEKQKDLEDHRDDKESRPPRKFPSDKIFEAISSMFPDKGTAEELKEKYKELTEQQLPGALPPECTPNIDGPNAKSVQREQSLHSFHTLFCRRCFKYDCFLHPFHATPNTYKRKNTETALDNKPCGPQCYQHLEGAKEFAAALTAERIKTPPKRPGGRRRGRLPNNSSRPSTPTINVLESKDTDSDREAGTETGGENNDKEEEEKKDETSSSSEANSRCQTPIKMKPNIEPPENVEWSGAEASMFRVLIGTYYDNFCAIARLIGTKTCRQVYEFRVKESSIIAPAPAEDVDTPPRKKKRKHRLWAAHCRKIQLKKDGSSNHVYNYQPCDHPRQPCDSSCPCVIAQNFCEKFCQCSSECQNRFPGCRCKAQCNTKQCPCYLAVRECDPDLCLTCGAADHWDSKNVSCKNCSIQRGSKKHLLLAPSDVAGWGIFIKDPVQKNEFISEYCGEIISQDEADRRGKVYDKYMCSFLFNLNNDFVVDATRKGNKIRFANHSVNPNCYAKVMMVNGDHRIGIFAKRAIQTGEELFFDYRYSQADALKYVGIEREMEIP

>  <cpdSmiles>
C=CC(=O)Nc1cc(-c2ccc(N3CCNCC3)nc2)cc(C(=O)NCc2c(CC)cc(C)[nH]c2=O)c1C

>  <IC50 (nM)>
47

$$$$

###

Assay: in vivo
Conditions: rat

>  <cpdSmiles>
Nc1nccc2c1ncn2[C@@H]1C=C(CO)[C@@H](O)[C@H]1O

>  <half-life>
1.1 h

$$$$

###

Target: Histone-lysine N-methyltransferase EZH2 (Homo sapiens, UniProt Q15910)
pIC50: −log10 of the molar value.
The reader will find reported pIC50 values listed item by item below.
measuredProperty: pIC50

>  <cpdSmiles>
Cc1cc(C)c(CNC(=O)c2cnn(C(C)C)c2C)c(=O)[nH]1

>  <measuredProperty>
pIC50

>  <resultOperator>
=

>  <valueMeasured>
3.47

$$$$
>  <cpdSmiles>
Cc1cc(C)c(CNC(=O)c2cnn(-c3ccccc3)c2)c(=O)[nH]1

>  <measuredProperty>
pIC50

>  <resultOperator>
<

>  <valueMeasured>
3.40

$$$$

###

Test system: PC-3
Assay: cells
Type: functional, cell-based
Settings: Homo sapiens, PC-3, 24 h
The reader will find reported IC50 values listed item by item below.
measuredProperty: IC50 (µM)

>  <compound>
COc1ccc(C2SCCC(=O)N2Nc2nc3cc(C)c(C)cc3[nH]2)cc1 (stereo unspecified)

>  <measuredProperty>
IC50

>  <valueMeasured>
66.3

$$$$
>  <compound>
O=C1CCSC(c2ccc(Cl)cc2)N1Nc1nc2ccccc2[nH]1 (stereo unspecified)

>  <measuredProperty>
IC50

>  <valueMeasured>
66.9

$$$$
>  <compound>
O=C1CCSC(c2ccc([N+](=O)[O-])cc2)N1Nc1nc2ccccc2[nH]1 (stereo unspecified)

>  <measuredProperty>
IC50

>  <valueMeasured>
64.6

$$$$
>  <compound>
O=C1CCSC(c2ccccc2Cl)N1Nc1nc2ccccc2[nH]1 (stereo unspecified)

>  <measuredProperty>
IC50

>  <valueMeasured>
9.41

$$$$
>  <compound>
COc1ccc(C2SCCC(=O)N2Nc2nc3ccccc3[nH]2)cc1 (stereo unspecified)

>  <measuredProperty>
IC50

>  <valueMeasured>
27

$$$$
>  <compound>
COc1ccc(C2SCCC(=O)N2Nc2nc3cc(Cl)c(Cl)cc3[nH]2)cc1 (stereo unspecified)

>  <measuredProperty>
IC50

>  <valueMeasured>
71.8

$$$$
